- tested on: MBP-fused PDZ domain of HTRA1 (human, UniProt Q92743 365-467)
- Sequence (Q92743 365-467): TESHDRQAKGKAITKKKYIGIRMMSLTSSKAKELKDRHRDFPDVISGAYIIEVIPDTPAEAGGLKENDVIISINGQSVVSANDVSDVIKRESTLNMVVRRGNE
- method description: fluorescence polarisation
Where no end group is shown, it is not given here.
Reported Kd values are given for each entry in this list.
Could you give the number and then its unit, please?

KLPSTTL (peptide, UniProt Q15418 729-735, looked up, phosphorylated; fluorescein labeled) [fluorescein labeled RSK1 729-735 peptide, phosphorylated] = 11.3 µM

With those in mind, consider the next binder.
Query :: Provide only the value of recorded Kd for KLPSTTL (peptide, UniProt Q15418 729-735, looked up, also: fluorescein labeled, site not given here) [fluorescein labeled RSK1 729-735 peptide, unphosphorylated]
Result :: 30 µM

Sourced from paper PMC6424611
